# method_notes: Annexin V/PI flow cytometric assay of neutrophils’ viability
# Format: cell-based, human
# conditions_used: human, isolated human neutrophils, pH 7.4; 50.00 μM; representative plot, Figure 4; read-out: Viable cells [annexin V (−)/PI (−)], lower left quadrant
quantity_measured: viability at 40 min, 50 µM (%)
Numbers only here, please. The scale is %.

Q: Consider the compound O=c1cc(/C=C/c2ccccc2)oc2cc(O)cc(O)c12 . State its measured viability at 40 min, 50 µM.
Result: 63.8

----------
# method_notes: Annexin V/PI flow cytometric assay of neutrophils’ viability
# Assay type: cell-based, human
# conditions_used: human, isolated human neutrophils, pH 7.4; 75.00 μM; representative plot, Figure 4; read-out: Viable cells [annexin V (−)/PI (−)], lower left quadrant
quantity_measured: viability at 40 min, 75 µM
Kindly write the number and append the unit.

Q: Consider the compound O=c1cc(/C=C/c2ccccc2)oc2cc(O)ccc12 [A3] . State its measured viability at 40 min, 75 µM.
Result: 84.3%

----------
# Test system: human neutrophils
# method_notes: Annexin V/PI flow cytometric assay of neutrophils’ viability
# Assay type: cell-based
# conditions_used: annexin V/PI assay, 40 min incubation at 37 °C
quantity_measured: Higher 2-SC concentration that did not affect human neutrophils’ viability (µM)
Numbers only here, please. The scale is µM.

Q: Consider the molecule O=c1cc(/C=C/c2ccc(Cl)c(Cl)c2)oc2cccc(O)c12 . State its measured Higher 2-SC concentration that did not affect human neutrophils’ viability.
Result: 25.00

Q: Consider the molecule O=c1cc(/C=C/c2ccc(O)cc2)oc2cc(O)ccc12 . State its measured Higher 2-SC concentration that did not affect human neutrophils’ viability.
Result: 25.00

Q: Consider the molecule O=c1cc(/C=C/c2ccccc2)oc2ccccc12 . State its measured Higher 2-SC concentration that did not affect human neutrophils’ viability.
Result: 75.00

Q: Consider the molecule COc1cc(O)c2c(=O)cc(/C=C/c3ccc(O)cc3)oc2c1 . State its measured Higher 2-SC concentration that did not affect human neutrophils’ viability.
Result: 6.25

Q: Consider the molecule O=c1cc(/C=C/c2ccc(OCc3ccccc3)c(OCc3ccccc3)c2)oc2ccccc12 [D1] . State its measured Higher 2-SC concentration that did not affect human neutrophils’ viability.
Result: 12.50

Q: Consider the molecule COc1ccc2c(=O)c(Br)c(/C=C/c3ccc(OC)c(OC)c3)oc2c1 . State its measured Higher 2-SC concentration that did not affect human neutrophils’ viability.
Result: 12.50

Q: Consider the molecule COc1cc(OC)c2c(=O)c(Br)c(/C=C/c3ccccc3)oc2c1 . State its measured Higher 2-SC concentration that did not affect human neutrophils’ viability.
Result: 50.00

Q: Consider the molecule COc1ccc(/C=C/c2cc(=O)c3ccc(OC)c(OC)c3o2)cc1OC . State its measured Higher 2-SC concentration that did not affect human neutrophils’ viability.
Result: 37.50

Q: Consider the molecule Cc1ccc(/C=C/c2cc(=O)c3c(O)cccc3o2)cc1 [E2] . State its measured Higher 2-SC concentration that did not affect human neutrophils’ viability.
Result: 12.50

----------
# Test system: human neutrophils
# method_notes: Annexin V/PI flow cytometric assay of neutrophils’ viability
# Format: cell-based
# conditions_used: annexin V/PI assay, 40 min incubation at 37 °C
# Higher 2-SC concentration that did not affect human neutrophils’ viability annotations
Numbers only here, please. The scale is µM.

Some solved entries appear below for comparison.
>  <smiles_representation>
O=c1cc(/C=C/c2ccc(O)cc2)oc2cccc(O)c12

>  <measured_result>
6.25

$$$$
>  <smiles_representation>
O=c1cc(/C=C/c2ccc(O)cc2)oc2cc(O)cc(O)c12

>  <measured_result>
6.25

$$$$
>  <smiles_representation>
O=c1cc(/C=C/c2ccccc2)oc2cc(O)ccc12

>  <measured_result>
75.00

$$$$
>  <smiles_representation>
COc1ccc(/C=C/c2cc(=O)c3ccc(OCc4ccccc4)c(OCc4ccccc4)c3o2)cc1OC

>  <measured_result>
25.00

$$$$

Q: Provide the reported Higher 2-SC concentration that did not affect human neutrophils’ viability (system: human neutrophils) for COc1cc(OC)c2c(=O)cc(/C=C/c3ccc(O)c(O)c3)oc2c1
Result: 12.50

Q: Provide the reported Higher 2-SC concentration that did not affect human neutrophils’ viability (system: human neutrophils) for COc1cccc2oc(/C=C/c3ccccc3)cc(=O)c12
Result: 6.25

Q: Provide the reported Higher 2-SC concentration that did not affect human neutrophils’ viability (system: human neutrophils) for COc1ccc(/C=C/c2cc(=O)c3c(OC)cccc3o2)cc1OC
Result: 50.00

Q: Provide the reported Higher 2-SC concentration that did not affect human neutrophils’ viability (system: human neutrophils) for O=c1cc(/C=C/c2ccc(O)c(O)c2)oc2ccccc12
Result: 12.50

Q: Provide the reported Higher 2-SC concentration that did not affect human neutrophils’ viability (system: human neutrophils) for COc1ccc2c(=O)cc(/C=C/c3ccc(OCc4ccccc4)c(OCc4ccccc4)c3)oc2c1OC
Result: 12.50

Q: Provide the reported Higher 2-SC concentration that did not affect human neutrophils’ viability (system: human neutrophils) for O=c1cc(/C=C/c2ccc(O)c(O)c2)oc2c(O)c(O)ccc12
Result: 12.50
